From: patent US11485735B2

system.name: CDK6/CyclinD3 (Homo sapiens, UniProt Q00534)
Construct: purchased Wuxi Biortus Biosciences Co. Ltd
Sequence (Q00534 whole entry, species assumed): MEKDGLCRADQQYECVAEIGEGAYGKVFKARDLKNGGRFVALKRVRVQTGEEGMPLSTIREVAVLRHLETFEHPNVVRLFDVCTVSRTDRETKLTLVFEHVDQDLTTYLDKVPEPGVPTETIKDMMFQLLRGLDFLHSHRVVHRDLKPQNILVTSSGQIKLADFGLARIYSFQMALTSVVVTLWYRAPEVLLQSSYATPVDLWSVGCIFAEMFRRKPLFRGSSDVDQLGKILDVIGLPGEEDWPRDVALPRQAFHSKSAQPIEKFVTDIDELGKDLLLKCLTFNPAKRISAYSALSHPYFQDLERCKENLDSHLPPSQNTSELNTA
Sequence (P30281 whole entry partner, species assumed): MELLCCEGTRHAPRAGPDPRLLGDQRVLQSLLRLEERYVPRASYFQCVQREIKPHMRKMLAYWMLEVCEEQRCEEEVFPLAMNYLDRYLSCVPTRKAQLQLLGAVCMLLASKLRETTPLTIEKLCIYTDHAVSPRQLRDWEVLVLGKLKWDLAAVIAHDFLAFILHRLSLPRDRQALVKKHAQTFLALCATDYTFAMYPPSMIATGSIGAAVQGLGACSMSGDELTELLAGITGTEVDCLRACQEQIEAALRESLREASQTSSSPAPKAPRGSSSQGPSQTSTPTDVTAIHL
test.protocol: In-vitro kinase inhibitory activity, CDK6/CyclinD3 (Caliper EZ Reader II mobility shift)
Type: biochemical
run.conditions: CDK6/CyclinD3 20 nM, ATP 2 mM, Peptide 1 μM, 27° C., 120 min; read-out: IC50 (half maximal inhibitory concentration, nM) CDK6
Where a name gives a salt, the structure may show the parent alone.
Reported values of IC50 for individual entries
quantity.measured: IC50 (nM)

molecule	quantity.measured	quantitative.readout
CC(=O)c1c(C)c2cnc(Nc3ccc(N4CCN(CCN5CCC(C(=O)N6CCN(c7ccc8c(c7)CN([C@H]7CCC(=O)NC7=O)C8=O)CC6)CC5)CC4)cn3)nc2n(C2CCCC2)c1=O [Compound 8]	IC50	16.1
CC(=O)c1c(C)c2cnc(Nc3ccc(N4CCN(CCN5CCN(c6c(F)cc7c(c6F)CN(C6CCC(=O)NC6=O)C7=O)CC5)CC4)cn3)nc2n(C2CCCC2)c1=O.Cl.Cl (stereo not drawn) [Compound 23, dihydrochloride]	IC50	22.1
CC(=O)c1c(C)c2cnc(Nc3ccc(N4CCN(CCN5CCC(CN6CCN(c7ccc8c(c7Cl)CN(C7CCC(=O)NC7=O)C8=O)CC6)CC5)CC4)cn3)nc2n(C2CCCC2)c1=O (stereo not drawn) [Compound 36, trihydrochloride]	IC50	4.44
